Target Under Test: Solute carrier family 2, facilitated glucose transporter member 1 (Homo sapiens)
Test Method Notes: ST_JUDE_LEISH: Cytotoxicity at 2uM final concentration against transgenic Leishmania Mexicana promastigotes LmGLUT1 that are glucose transport deficient and complemented with the human glucose transporter GLUT1. Activity is measured by DNA content using SYBR green in vitro
Type: functional
Recorded Endpoint: inhibition

Solved cases (3 shown):
{"Molecule": "COc1ccc(CNC(=O)c2cnc3c(O)cccc3c2Nc2cccc(NC(=O)c3ccc(Cl)c(Cl)c3)c2)cc1", "Target Under Test": "Solute carrier family 2, facilitated glucose transporter member 1 (Homo sapiens)", "inhibition": "74.7%"}
{"Molecule": "CCc1ccc(CN2CCC(NC(=O)c3cc(-c4ccc(N(C)C)cc4)cs3)C2)cc1 (configuration not stated)", "Target Under Test": "Solute carrier family 2, facilitated glucose transporter member 1 (Homo sapiens)", "inhibition": "1.27%"}
{"Molecule": "O=C(/C=C/c1ccc(Cl)cc1)NCCCCCN1CCCN(C(=O)Nc2ccc(F)c(Cl)c2)CC1", "Target Under Test": "Solute carrier family 2, facilitated glucose transporter member 1 (Homo sapiens)", "inhibition": "5.5%"}

What measured inhibition goes with O=C(NCCCN1CCC(Cc2ccccc2)CC1)c1cc2c(Cl)nc3ccccc3c2s1 ?
0.05%

How about Cc1noc(=O)c2ccc(NC(=O)C(O)(CSc3ccccc3)CC(C)C)cc12 (configuration not stated) ?
6.92%

How about COc1ccc(CN(C)CCCc2ccc(NC(=O)c3cccc4c(=O)c5cccc(F)c5[nH]c34)cc2)cc1OC ?
14.2%

How about COc1ccc2nccc([C@@H](O)CN3CCC(NC(=O)C(c4ccsc4)N4CCN(c5ccccc5OC)CC4)CC3)c2c1 (some centres not stated) ?
1.93%

====

Target Under Test: Hexose transporter 1 (Plasmodium falciparum) (UniProt O97467)
Test Method Notes: ST_JUDE_LEISH: Cytotoxicity at 2uM final concentration against transgenic Leishmania Mexicana promastigotes LmPfHT that are glucose transport deficient and complemented with the Plasmodium falciparum hexose transporter. Activity is measured by DNA content using SYBR green in vitro
Type: functional
Recorded Endpoint: inhibition (%)
Provide only the numeric value, understood in %.

Solved cases (10 shown):
{"Molecule": "O=C(Nc1ccc(OC2CCN(Cc3ccccc3)C2)c(Cl)c1)c1ccsc1 (stereo unspecified)", "Target Under Test": "Hexose transporter 1 (Plasmodium falciparum) (UniProt O97467)", "Unit Abbreviation": "%", "Value Reported": 2.26}
{"Molecule": "NC(=O)c1cccc(C(=O)Nc2cccc(-c3cccc(-c4nc5ccccc5[nH]4)c3)c2)c1", "Target Under Test": "Hexose transporter 1 (Plasmodium falciparum) (UniProt O97467)", "Unit Abbreviation": "%", "Value Reported": 5.18}
{"Molecule": "FC(F)(F)c1ccc2[nH]c(-c3ccc(-c4cccc(CN5CCC(CCN6CCCCC6)CC5)c4)cc3)nc2c1", "Target Under Test": "Hexose transporter 1 (Plasmodium falciparum) (UniProt O97467)", "Unit Abbreviation": "%", "Value Reported": 4.82}
{"Molecule": "COc1cc(Cc2cnc(N)nc2N)cc(OCCCCCC(=O)O)c1OC", "Target Under Test": "Hexose transporter 1 (Plasmodium falciparum) (UniProt O97467)", "Unit Abbreviation": "%", "Value Reported": 5.78}
{"Molecule": "COc1cc(C)nc2ccc(NC(=O)c3cc([N+](=O)[O-])cc([N+](=O)[O-])c3)cc12", "Target Under Test": "Hexose transporter 1 (Plasmodium falciparum) (UniProt O97467)", "Unit Abbreviation": "%", "Value Reported": 0.24}
{"Molecule": "CC(C)c1sc(N2CCCCC2)nc1C(=O)Nc1ccc(F)cc1C(F)(F)F", "Target Under Test": "Hexose transporter 1 (Plasmodium falciparum) (UniProt O97467)", "Unit Abbreviation": "%", "Value Reported": 0.82}
{"Molecule": "CCCCCCCCNCC(O)c1cc(-c2ccc(Cl)cc2)nc2cc(C)ccc12 (stereo unspecified)", "Target Under Test": "Hexose transporter 1 (Plasmodium falciparum) (UniProt O97467)", "Unit Abbreviation": "%", "Value Reported": -0.38}
{"Molecule": "CCc1c(CCNCCCC(C)CCNCCc2ccc(OC)c(OC)c2CC)ccc(OC)c1OC (stereo unspecified)", "Target Under Test": "Hexose transporter 1 (Plasmodium falciparum) (UniProt O97467)", "Unit Abbreviation": "%", "Value Reported": 4.93}
{"Molecule": "Nc1nc(N)c2c(ccc3[nH]ccc32)n1", "Target Under Test": "Hexose transporter 1 (Plasmodium falciparum) (UniProt O97467)", "Unit Abbreviation": "%", "Value Reported": 2.46}
{"Molecule": "O=C(NCCCCN1CCC(c2c[nH]c3ccc(-c4ccccc4)cc23)CC1)c1ccc(-c2ccccc2)cc1", "Target Under Test": "Hexose transporter 1 (Plasmodium falciparum) (UniProt O97467)", "Unit Abbreviation": "%", "Value Reported": 4.21}

// switching to the query molecule
What measured inhibition goes with CN(C)CCNC(=O)N1CCCN(c2ncnc3cc(-c4ccc(Cl)cc4)sc23)CC1 ?
-1.89
